Target: HIV-1 envelope glycoprotein gp120 of virus VS001 (HIV-1)
Test: cell-based or functional assay
// neutralization IC50 lookup, one value per entry
Please respond with the number in µg/mL and leave the unit unwritten.

1.1.119-1 (antibody, human IgG1, kappa, V domains shown) VH: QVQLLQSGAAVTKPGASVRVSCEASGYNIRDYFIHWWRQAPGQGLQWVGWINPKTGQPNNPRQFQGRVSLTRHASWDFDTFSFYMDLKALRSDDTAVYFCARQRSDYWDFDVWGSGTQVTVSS VL: DIQMTQSPSSLSASVGDRATITCQANGYLNWYQQRRGKAPKLLIYDGSKLERGVPSRFSGSRWGQEYTLTISSLQPEDIATYFCQVYEFFGPGTRLDLKR: 0.39
2.3.13-1 (antibody, human IgG1, kappa, V domains shown) VH: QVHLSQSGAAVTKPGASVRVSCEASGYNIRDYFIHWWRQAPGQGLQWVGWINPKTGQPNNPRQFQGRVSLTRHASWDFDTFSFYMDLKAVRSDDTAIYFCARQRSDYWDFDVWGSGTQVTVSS VL: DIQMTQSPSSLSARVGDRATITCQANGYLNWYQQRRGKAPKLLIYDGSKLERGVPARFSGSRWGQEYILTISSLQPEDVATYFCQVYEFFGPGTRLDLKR: 1.5

Input: Given the entry 2.2.9-1 (antibody, human IgG1, kappa, V domains shown) VH: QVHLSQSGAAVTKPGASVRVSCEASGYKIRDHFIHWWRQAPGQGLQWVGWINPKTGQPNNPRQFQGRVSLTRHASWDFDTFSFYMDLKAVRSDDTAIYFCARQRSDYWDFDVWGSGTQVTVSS VL: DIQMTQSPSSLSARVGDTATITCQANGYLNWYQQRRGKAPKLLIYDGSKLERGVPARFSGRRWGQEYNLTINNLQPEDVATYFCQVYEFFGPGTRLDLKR , report its measured neutralization IC50.
Output: 0.15

Input: Can you check 2.2.7-1 (antibody, human IgG1, kappa, V domains shown) VH: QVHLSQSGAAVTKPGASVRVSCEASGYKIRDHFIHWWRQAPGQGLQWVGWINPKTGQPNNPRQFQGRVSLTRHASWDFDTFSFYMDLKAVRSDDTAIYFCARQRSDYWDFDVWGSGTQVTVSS VL: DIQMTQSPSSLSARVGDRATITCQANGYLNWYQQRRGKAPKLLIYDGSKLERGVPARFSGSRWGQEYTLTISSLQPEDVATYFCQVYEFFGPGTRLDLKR next?
Output: 0.27

Input: Can you check 2.3.9-1 (antibody, human IgG1, kappa, V domains shown) VH: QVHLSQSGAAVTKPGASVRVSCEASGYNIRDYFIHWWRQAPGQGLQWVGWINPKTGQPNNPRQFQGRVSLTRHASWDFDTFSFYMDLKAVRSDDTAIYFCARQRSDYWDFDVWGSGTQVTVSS VL: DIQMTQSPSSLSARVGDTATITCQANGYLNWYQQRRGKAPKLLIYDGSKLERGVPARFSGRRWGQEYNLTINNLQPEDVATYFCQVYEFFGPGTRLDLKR next?
Output: 0.22
